# system.tested: Microphthalmia-associated transcription factor (Homo sapiens)
# method.summary: MITF inhibitors, primary screen, biochemical, AlphaScreen, human (AID 1259374);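 note: 0% = vehicle wells with protein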
# condition.set: AlphaScreen MITF homodimerization, bead proximity signal; at 2.6 µM; hits give high values
About 5,900 (0.91%) of roughly 650,000 compounds were called active. The entries come from a sample that favours actives as a whole.
Documented inhibition across a set of compounds
quantity.name: inhibition

CCNC(=S)NNC(=O)c1cccc(S(=O)(=O)Nc2ccc(C)cc2C)c1 :: 6.71% (inactive)
CC(=O)N1C(=O)C(=O)c2cc(Cl)ccc21 :: -11.3% (inactive)
Cc1ccc(NC(=O)Nc2nnc(CC(=O)Nc3ccccc3C)s2)cc1C :: 17.1% (inactive)
Fc1cccc(Cl)c1Cn1nnc(-c2ccncc2)n1 :: 74% (active)
Cc1ccc2nc(CN3CCN(C=O)CC3)nc(N3CCSCC3)c2c1 :: -5.97% (inactive)
C[C@@H](OCc1ccccc1)[C@@H]1NC(=O)[C@H]2CN(Cc3ccc4ncccc4c3)CCN2C1=O :: 15.9% (inactive)
O=C(c1ccc2c(c1)OCO2)N1CCCCC1c1nc2ccccc2[nH]1 (centres undefined) :: 10.6% (inactive)
COc1ccc(CN2CCC3(CC2)CC3C(=O)NCc2ccccc2C(F)(F)F)cc1O (centres undefined) :: 0.47% (inactive)
CC(c1ccccn1)N(CCN(C)C)C(=S)Nc1ccccc1F (centres undefined) :: 58% (active)
CCOC(=O)N1CCC(N(CCOC)C(=S)Nc2ccccc2F)CC1 :: -9.05% (inactive)
COc1ccc(NC(=O)C2CC(=O)N(c3ccc(Oc4ccccc4)cc3)C2)cc1 (centres undefined) :: 12.4% (inactive)
Cc1ccc(OCCN2CCNCC2)c(Cl)c1 :: 36.1% (inactive)
COC(=O)c1ccccc1S(=O)(=O)C1CCN(Cc2cccnc2)CC1 :: 13.1% (inactive)
O=C1c2ccccc2-c2ccc(-c3nc(-c4ccccc4)[nH]c3-c3ccccc3)cc21 :: -1.27% (inactive)
CC(=O)N1CCc2cc(Br)cc(S(=O)(=O)N3CCN(Cc4ccccc4)CC3)c21 :: 13.2% (inactive)
COc1ccc(-c2nc(N)c3[nH]cnc3n2)cc1 :: -0.37% (inactive)
O=C(NCC1CCCO1)C1CCC(Cn2c(SCc3ccc([N+](=O)[O-])cc3)nc3ccccc3c2=O)CC1 (centres undefined) :: 1.86% (inactive)
CCOC(=O)C1=C(O)/C(=C\c2cccc(Cl)c2)N=C1C :: -3.89% (inactive)
COc1cccc(OC)c1C(=O)N1CCN(Cc2cccnc2)CC1 :: 79.5% (active)
COc1ccc(CN2CCN(C(=O)c3ccc(F)cc3)CC2)cc1OC :: 6.68% (inactive)
COc1ccc(C(=O)N2CCN(Cc3cccc(OC)c3OC)CC2)cc1OC :: 44.2% (inactive)
COc1ccccc1C(=O)N1CCN=C1SCc1cccnc1 :: -16.8% (inactive)
O=C(Cn1cncn1)NCCCOc1cccc(CN2CCCCCCC2)c1 :: -3.47% (inactive)
COc1ccc(-c2nc(Nc3cc(OC)c(OC)c(OC)c3)c3[nH]cnc3n2)cc1 :: 63.2% (active)
COC(=O)c1c(OCCCN(C)C)cc(=O)n2c1CCN(C(=O)c1ccc(F)cc1)CC2 :: -2.23% (inactive)
Cc1ccc(S(=O)(=O)N2CCN(Cc3ccc(F)cc3)CC2)cc1 :: 49.5% (inactive)
CCOc1cc(/C=C2\NC(=S)NC2=O)cc(Br)c1OC :: 19.5% (inactive)
COc1ccccc1/C=C/CN1CCN(C)CC1 :: 44.2% (inactive)
Cc1cc(OCCCCN2CCOCC2)ccc1C(C)C :: 27.1% (inactive)
COc1cc(N/N=C(\C)c2ccc([N+](=O)[O-])cc2)ncn1 :: 9.19% (inactive)
c1ccc(Oc2cccc(OCCCCn3cncn3)c2)cc1 :: 73.8% (active)
COc1cccc(C(C)N(C)C(=O)c2cc(COc3ccc(C(C)=O)cc3)on2)c1 (centres undefined) :: 11.1% (inactive)
c1ccc(OCCCCn2nnc(-c3ccncc3)n2)cc1 :: 10.3% (inactive)
C[C@@H](OCc1ccccc1)[C@@H]1NC(=O)[C@H]2CN(C(=O)Nc3cccc(F)c3)CCN2C1=O :: 75.3% (active)
COC(=O)C1=C(O)/C(=C\c2cccc(O)c2)N=C1C :: 58% (active)
Cc1cc(NC(=O)Cc2ccccc2)n(-c2nc(C)c(C)c(=O)[nH]2)n1 :: 24.5% (inactive)
O=C(NCc1ccccc1)c1ccc2c(c1)nc(SCc1ccc([N+](=O)[O-])cc1)n1c3ccccc3nc21 :: 13.9% (inactive)
CSc1ccc(CN2CCN(S(=O)(=O)c3ccc([N+](=O)[O-])cc3)CC2)cc1 :: 53.2% (active)
COc1cccc(OC)c1C(=O)NNC(=O)c1cccc(C)c1O :: -15.2% (inactive)
Cc1cc(OCCN2CCN(C)CC2)ccc1C(C)C :: 59.4% (active)
COc1ccc(CN2CCN(Cc3ccccc3C(F)(F)F)CC2)cc1OC :: 75.6% (active)
Cc1nc2sccn2c1CN1CCC(C2(Cc3ccccc3)NC(=O)NC2=O)CC1 (centres undefined) :: -18.4% (inactive)
O=C(CN1C(=O)CCC1=O)Nc1ccc(O)c(-c2nc3ccccc3s2)c1 :: 0.38% (inactive)
COc1ccccc1CN1CCN(S(=O)(=O)c2ccc([N+](=O)[O-])cc2)CC1 :: 39.9% (inactive)

====

# system.tested: Microphthalmia-associated transcription factor (Homo sapiens) (UniProt O75030)
# Sequence (O75030 whole entry, looked up): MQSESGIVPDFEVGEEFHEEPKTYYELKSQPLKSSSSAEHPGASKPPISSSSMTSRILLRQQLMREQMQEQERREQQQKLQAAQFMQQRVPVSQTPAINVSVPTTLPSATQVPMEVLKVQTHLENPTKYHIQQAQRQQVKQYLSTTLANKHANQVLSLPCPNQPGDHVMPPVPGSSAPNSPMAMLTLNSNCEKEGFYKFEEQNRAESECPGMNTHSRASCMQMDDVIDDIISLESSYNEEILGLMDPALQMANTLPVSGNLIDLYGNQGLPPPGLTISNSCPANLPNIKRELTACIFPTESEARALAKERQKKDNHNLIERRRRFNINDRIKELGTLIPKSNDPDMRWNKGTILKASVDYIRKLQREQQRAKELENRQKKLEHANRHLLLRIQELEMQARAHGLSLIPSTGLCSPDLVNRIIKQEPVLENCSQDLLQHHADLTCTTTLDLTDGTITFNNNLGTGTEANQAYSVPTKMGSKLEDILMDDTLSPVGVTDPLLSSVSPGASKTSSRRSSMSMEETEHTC
# method.summary: MITF inhibitors, primary screen, biochemical, AlphaScreen, human (AID 1259374);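 note: 0% = vehicle wells with protein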
# condition.set: AlphaScreen MITF homodimerization, bead proximity signal; at 2.6 µM; hits give high values
About 5,900 (0.91%) of roughly 650,000 compounds were called active. The sample holds actives, similar compounds and a random draw of the others, so the mix is not that of the screen.
Documented inhibition across a set of molecules
quantity.name: inhibition (%)

CC(=O)c1ccc(NC(=O)C(C)NCc2ccc(Cl)cc2)cc1 (stereo unspecified) :: 3.65
CC(=O)c1ccc(NC(=O)C(C)NCc2ccc(C)cc2)cc1 (stereo unspecified) :: 76
CCC(C)NCC(=O)Nc1cccc(C)c1C (stereo unspecified) :: -0.21
N#Cc1ccc(-c2cccnc2)nc1SCC(=O)c1ccc(Cl)cc1 :: -7.18
CCN1C(=O)/C(=C\c2ccc(O)cc2)C(=O)NC1=S :: 3.62
O=C(OCCN1CCOCC1)c1c(Cl)nc2sccn12 :: 68.3
C/C(=N\c1ccccn1)c1c(O)c2ccccc2oc1=O :: 5.79
COc1ccc(/C=C/C(=O)OCCN2CCOCC2)cc1 :: 12.6
Cc1cccc(NC(=O)CNCCN2CCCCC2)c1C :: 62.5
Cc1nnc(SCC(=O)Nc2ccc(Cc3ccc(NC(=O)CSc4nnc(C)s4)c(C(=O)O)c3)cc2C(=O)O)s1 :: 10.6
CC1CCCCC1NC(=O)CSc1nnc(-c2ccncc2)n1CCCN(C)C (stereo unspecified) :: 85.7

====

# system.tested: Microphthalmia-associated transcription factor (Homo sapiens) (UniProt O75030)
# method.summary: MITF inhibitors, primary screen, biochemical, AlphaScreen, human (AID 1259374);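 note: 0% = vehicle wells with protein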
# condition.set: AlphaScreen MITF homodimerization, bead proximity signal; at 2.6 µM
Screen size: about 650,000 compounds; about 5,900 (0.91%) were called active. No stated cut-off is given here; in the data, active means inhibition above about 50%; inactive means the rest. Only a selection was taken, and actives are over-represented in it overall.
Classes used: active, inactive

Cc1nc(Nc2ccncc2)cc(-c2ccc(F)cc2)n1 :: inactive
NC(=O)c1ccccc1NC(=O)CNCc1ccco1 :: inactive
COc1ccc(OCCCC(=O)Nc2ccccc2)cc1 :: inactive
COc1cc(CN(CCN(C)C)Cc2ccccc2)cc(OC)c1 :: active
c1ccc(-c2cc(NCCCn3ccnc3)nc(-c3ccccn3)n2)nc1 :: active
Clc1ccc(-c2cc(NCCCn3ccnc3)ncn2)cc1 :: inactive
Cc1ccc2[nH]c3nc(N/N=C/c4ccc(N(C)C)cc4)nnc3c2c1 :: inactive
O=C(C1CCN(Cc2nc3ccccc3[nH]2)CC1)N1CCN(c2ccccn2)CC1 :: active
COc1ccc(OC(=O)COc2ccc(Br)cc2)cc1 :: inactive
O=C(COc1ccc(Cl)cc1Cl)Nc1ccc(Br)cn1 :: inactive
Cc1nc(NC2CC2)cc(-c2ccc(F)cc2)n1 :: active
COCCNc1cc(-c2ccc(F)cc2)nc(C)n1 :: inactive

====

# system.tested: Microphthalmia-associated transcription factor (Homo sapiens)
# method.summary: MITF inhibitors, primary screen, biochemical, AlphaScreen, human (AID 1259374);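 note: 0% = vehicle wells with protein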
# condition.set: AlphaScreen MITF homodimerization, bead proximity signal; at 2.6 µM
Hit rate of the full screen: of about 650,000 compounds, about 5,900 (0.91%) were called active. No stated cut-off is given here; in the data, active means inhibition above about 50%; inactive means the rest. This is one part of a sample in which actives are shown more often than they occur.
Classes used: active, inactive

CCCCC(=O)NC(c1ccc(OC)cc1)c1cc([N+](=O)[O-])c2cccnc2c1O (stereo not drawn) :: inactive
O=C(Cn1nnc2ccccc21)N/N=C/c1c(O)ccc2ccccc12 :: inactive
CCCC(=O)NC(c1ccccc1OC)c1cc([N+](=O)[O-])c2cccnc2c1O (stereo not drawn) :: active
CCCNC(=O)N1CCCC(N2CCN(Cc3ccc4c(c3)OCO4)CC2)C1 (stereo not drawn) :: inactive
CCCOc1ccc(C2C(=O)N(C3CCCCCC3)CC(=O)N2CC2COc3ccccc3O2)cc1OC (stereo not drawn) :: inactive
CC(Nc1ccc(-c2cccc(C=O)c2)cn1)c1ccc(F)cc1 (stereo not drawn) :: inactive
Cc1ccc2c(c1)-c1onc(C(=O)Nc3ccc(Cl)cn3)c1CO2 :: inactive
N#C/C(=C/c1ccc(-c2ccc3c(c2)C(=O)NC3=O)o1)C(=O)O :: active
OC1CCCN(Cc2ccc3c(c2)OCO3)C1 (stereo not drawn) :: inactive
Cc1nc2c(c(=O)[nH]1)C(c1ccc(Cl)c(Cl)c1)C(C#N)=C(N)O2 (stereo not drawn) :: inactive
N#C/C(=C/c1ccc(-c2ccc(F)cc2)o1)C(=O)N1CCCCC1 :: inactive
c1cc2c(cc1Cn1nnnc1CN1CCN(C3CCCC3)CC1)OCO2 :: inactive
O=C1c2ccccc2C(=O)N1CCSc1nc2sc3c(c2c(=O)n1-c1ccccc1)CCCC3 :: inactive
COC(=O)C(C)CN1CCN(Cc2ccc3c(c2)OCO3)CC1 (stereo not drawn) :: active
COc1ccc2c(c1)OC(C)CN(C(=O)C1CCCCCN1C)C2 (stereo not drawn) :: inactive
N#CCSc1nc2[nH]ncc2c(=O)n1-c1cccc(C(F)(F)F)c1 :: inactive
CCN(CC)CCN(CC)Cc1c(F)cccc1F :: inactive
CCN(CCCNC(=O)Cn1c(=O)[nH]c2ccccc2c1=O)c1cccc(C)c1 :: inactive
Cc1cc(C(C)(C)C)ccc1OCCOCCNCCN :: inactive
O=S(=O)(NCc1cccnc1)c1ccc(-n2cnnn2)cc1 :: inactive
CCN(CC)C(=O)C(Cc1ccccc1)NCC(=O)Nc1ccc(C)cc1 (stereo not drawn) :: inactive
CSc1ncc(/C=C2/C(=O)NC(=O)N(c3ccccc3)C2=O)cn1 :: inactive
CN(C)CCN(C)Cc1c(F)cccc1Cl :: inactive
